- assayedSystem: Torsin-1A (Homo sapiens)
- assaySummary: torsin A mutant lysate binding on microarrays – cell lysate, small-molecule microarray, COS7 lysate, 635/667 nm fluorescence, primary screen (AID 1150);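 also: score pools 667 nm emission and signal to noise measuring lysate protein binding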
- experimentalParameters: COS7 hTOR1A mutant lysate, 635 nm fluorescence, higher = more signal
measuredParameter: composite z-score

> print(dat)
                                   compound  recordedvalue
1  COc1ccc([Si](C)(C)[C@@H]2[C@@H](CCO)O[C@]3(C(=O)N(Cc4ccc(N5C(=O)c6cccc7cccc5c67)cc4)c4ccccc43)[C@H]2C)cc1         -0.535
2  CC(C)NC(=O)[C@@]1(c2ccc([N+](=O)[O-])cc2)CC(=O)N(C(C)C)[C@@H]1c1ccc(CO)cc1           1.28
3  CCN(CC)c1ccc(N2CC=CC34O[C@@H]5/C=C\CCCOC(=O)C5[C@H]3C(=O)N(CCCO)[C@@H]4C2=O)cc1 (some centres undefined)          -1.45
4  C=C[C@@H](C)[C@@H](OC(=O)Nc1ccc(OC)cc1)c1ccc(O)c2ccccc12        -0.0324
